- Tested on: 422866-222-R5-J1-PDC complex spheroid viability
- Protocol text: Anticancer human tumor 422866-222-R5-J1-PDC patient-derived pancreatic adenocarcinoma cell line growth inhibition [POLQ]
- Stated conditions: second compound 0.0316 µM; first compound 1 µM; stronger effect = lower value
viability, T/C strictly less than 60% = true (1). Otherwise false (0).

- Compound: "COc1cc(C2c3cc4c(cc3C(OC3OC5COC(C)OC5C(O)C3O)C3COC(=O)C23)OCO4)cc(OC)c1O (stereo not given) + Cc1cccc(N(C)C(=O)C2C(O)CCN2c2nc(C)cc(C(F)(F)F)c2C#N)c1"
  Test system: "422866-222-R5-J1-PDC complex spheroid viability"
  Discrete label: "true (1)"
- Compound: "O=C(Nc1ccc(O)c(NS(=O)(=O)c2ccc(F)cc2)c1)c1ccc(-c2ccccc2)cc1 + Nc1ccc(C#CCN(C(=O)Cc2ncc(C(F)(F)F)cc2C(F)(F)F)c2ccc(F)cc2)nn1"
  Test system: "422866-222-R5-J1-PDC complex spheroid viability"
  Discrete label: "false (0)"
- Compound: "CC1COCCN1c1cc(C2(S(C)(=N)=O)CC2)nc(-c2ccnc3[nH]ccc23)n1 (stereo not given) + Nc1ccc(C#CCN(C(=O)Cc2ncc(C(F)(F)F)cc2C(F)(F)F)c2ccc(F)cc2)nn1"
  Test system: "422866-222-R5-J1-PDC complex spheroid viability"
  Discrete label: "false (0)"
- Compound: "C#Cc1c(F)ccc2cc(O)cc(-c3ncc4c(N5CC6CCC(C5)N6)nc(OCC56CCCN5CC(F)C6)nc4c3F)c12 (stereo not given) + Cc1cccc(N(C)C(=O)C2C(O)CCN2c2nc(C)cc(C(F)(F)F)c2C#N)c1"
  Test system: "422866-222-R5-J1-PDC complex spheroid viability"
  Discrete label: "true (1)"
- Compound: "O=C(Nc1ccc(O)c(NS(=O)(=O)c2ccc(F)cc2)c1)c1ccc(-c2ccccc2)cc1 + Cc1cccc(N(C)C(=O)C2C(O)CCN2c2nc(C)cc(C(F)(F)F)c2C#N)c1"
  Test system: "422866-222-R5-J1-PDC complex spheroid viability"
  Discrete label: "false (0)"

====

The reader will find reported viability, T/C values listed item by item below.
- System: 422866-222-R5-J1-PDC complex spheroid viability
- Protocol text: Anticancer human tumor 422866-222-R5-J1-PDC cell line growth inhibition [POLQ];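 further: spheroids exposed to compounds for one week before readout; percent of DMSO vehicle wells luminescence so 100% = untreated viability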
- Stated conditions: second compound 10 µM; first compound 10 µM; stronger effect = lower value

- Compound: "Nc1ccn(C2OC(CO)C(O)C2(F)F)c(=O)n1 (stereo unspecified) + Cc1cccc(N(C)C(=O)C2C(O)CCN2c2nc(C)cc(C(F)(F)F)c2C#N)c1"
  Test system: "422866-222-R5-J1-PDC complex spheroid viability"
  Unit of measure: "%"
  viability, T/C: 48.5
- Compound: "C=CC(=O)N1CCN(c2nc(=O)n(-c3c(C)ccnc3C(C)C)c3nc(-c4c(O)cccc4F)c(F)cc23)C(C)C1 (stereo unspecified) + Nc1ccc(C#CCN(C(=O)Cc2ncc(C(F)(F)F)cc2C(F)(F)F)c2ccc(F)cc2)nn1"
  Test system: "422866-222-R5-J1-PDC complex spheroid viability"
  Unit of measure: "%"
  viability, T/C: 27.6
- Compound: "CC1COCCN1c1cc(-c2ccnn2C)c2ccnc(-c3ccn[nH]3)c2n1 (stereo unspecified) + Nc1ccc(C#CCN(C(=O)Cc2ncc(C(F)(F)F)cc2C(F)(F)F)c2ccc(F)cc2)nn1"
  Test system: "422866-222-R5-J1-PDC complex spheroid viability"
  Unit of measure: "%"
  viability, T/C: 74.8
- Compound: "C#Cc1c(F)ccc2cc(O)cc(-c3ncc4c(N5CC6CCC(C5)N6)nc(OCC56CCCN5CC(F)C6)nc4c3F)c12 (stereo unspecified) + Nc1ccc(C#CCN(C(=O)Cc2ncc(C(F)(F)F)cc2C(F)(F)F)c2ccc(F)cc2)nn1"
  Test system: "422866-222-R5-J1-PDC complex spheroid viability"
  Unit of measure: "%"
  viability, T/C: 27.7
- Compound: "C#Cc1c(F)ccc2cc(O)cc(-c3ncc4c(N5CC6CCC(C5)N6)nc(OCC56CCCN5CC(F)C6)nc4c3F)c12 (stereo unspecified) + Cc1cccc(N(C)C(=O)C2C(O)CCN2c2nc(C)cc(C(F)(F)F)c2C#N)c1"
  Test system: "422866-222-R5-J1-PDC complex spheroid viability"
  Unit of measure: "%"
  viability, T/C: 27.6
- Compound: "CC(C)n1c(=O)n(C)c2cnc3cc(F)c(-c4ccc(OCCCN5CCCCC5)nc4)cc3c21 + Nc1ccc(C#CCN(C(=O)Cc2ncc(C(F)(F)F)cc2C(F)(F)F)c2ccc(F)cc2)nn1"
  Test system: "422866-222-R5-J1-PDC complex spheroid viability"
  Unit of measure: "%"
  viability, T/C: 49.5
- Compound: "CCCS(=O)(=O)Nc1ccc(F)c(C(=O)c2c[nH]c3ncc(-c4ccc(Cl)cc4)cc23)c1F + COC1C(OC(N)=O)C(O)C(Oc2ccc3c(O)c(NC(=O)c4ccc(O)c(CC=C(C)C)c4)c(=O)oc3c2C)OC1(C)C"
  Test system: "422866-222-R5-J1-PDC complex spheroid viability"
  Unit of measure: "%"
  viability, T/C: 93.4
- Compound: "O=C(Nc1ccc(O)c(NS(=O)(=O)c2ccc(F)cc2)c1)c1ccc(-c2ccccc2)cc1 + COC1C(OC(N)=O)C(O)C(Oc2ccc3c(O)c(NC(=O)c4ccc(O)c(CC=C(C)C)c4)c(=O)oc3c2C)OC1(C)C"
  Test system: "422866-222-R5-J1-PDC complex spheroid viability"
  Unit of measure: "%"
  viability, T/C: 133
- Compound: "CCc1cc2c(N3CCc4c(cc(Cn5ccnc5)cc4-c4cn(C)nc4C(F)(F)F)C3=O)ccnc2c(OC)n1 + COC1C(OC(N)=O)C(O)C(Oc2ccc3c(O)c(NC(=O)c4ccc(O)c(CC=C(C)C)c4)c(=O)oc3c2C)OC1(C)C"
  Test system: "422866-222-R5-J1-PDC complex spheroid viability"
  Unit of measure: "%"
  viability, T/C: 122
- Compound: "COc1ccc([C@@H](O)c2cc(-c3ncnc4cc(N5CCOCC5)ccc34)c(F)cc2Cl)nn1 + COC1C(OC(N)=O)C(O)C(Oc2ccc3c(O)c(NC(=O)c4ccc(O)c(CC=C(C)C)c4)c(=O)oc3c2C)OC1(C)C"
  Test system: "422866-222-R5-J1-PDC complex spheroid viability"
  Unit of measure: "%"
  viability, T/C: 37
- Compound: "CC1COCCN1c1cc(-c2ccnn2C)c2ccnc(-c3ccn[nH]3)c2n1 (stereo unspecified) + COC1C(OC(N)=O)C(O)C(Oc2ccc3c(O)c(NC(=O)c4ccc(O)c(CC=C(C)C)c4)c(=O)oc3c2C)OC1(C)C"
  Test system: "422866-222-R5-J1-PDC complex spheroid viability"
  Unit of measure: "%"
  viability, T/C: 71.7
- Compound: "CC1COCCN1c1cc(C2(O)CC3CCC(C2)O3)c2cnn(-c3ccn[nH]3)c2n1 (stereo unspecified) + COC1C(OC(N)=O)C(O)C(Oc2ccc3c(O)c(NC(=O)c4ccc(O)c(CC=C(C)C)c4)c(=O)oc3c2C)OC1(C)C"
  Test system: "422866-222-R5-J1-PDC complex spheroid viability"
  Unit of measure: "%"
  viability, T/C: 65.6
- Compound: "CNCc1ccc(-c2[nH]c3cc(F)cc4c3c2CCNC4=O)cc1 + COC1C(OC(N)=O)C(O)C(Oc2ccc3c(O)c(NC(=O)c4ccc(O)c(CC=C(C)C)c4)c(=O)oc3c2C)OC1(C)C"
  Test system: "422866-222-R5-J1-PDC complex spheroid viability"
  Unit of measure: "%"
  viability, T/C: 90.2
- Compound: "O=c1[nH]cc(F)c(=O)[nH]1 + Cc1cccc(N(C)C(=O)C2C(O)CCN2c2nc(C)cc(C(F)(F)F)c2C#N)c1"
  Test system: "422866-222-R5-J1-PDC complex spheroid viability"
  Unit of measure: "%"
  viability, T/C: 67.8
- Compound: "COc1cccc2c1C(=O)c1c(O)c3c(c(O)c1C2=O)CC(O)(C(=O)CO)CC3OC1CC(N)C(O)C(C)O1 (stereo unspecified) + Nc1ccc(C#CCN(C(=O)Cc2ncc(C(F)(F)F)cc2C(F)(F)F)c2ccc(F)cc2)nn1"
  Test system: "422866-222-R5-J1-PDC complex spheroid viability"
  Unit of measure: "%"
  viability, T/C: 30.5
- Compound: "CNCc1ccc(-c2[nH]c3cc(F)cc4c3c2CCNC4=O)cc1 + Cc1cccc(N(C)C(=O)C2C(O)CCN2c2nc(C)cc(C(F)(F)F)c2C#N)c1"
  Test system: "422866-222-R5-J1-PDC complex spheroid viability"
  Unit of measure: "%"
  viability, T/C: 67.1
- Compound: "CNCc1ccc(-c2[nH]c3cc(F)cc4c3c2CCNC4=O)cc1 + Nc1ccc(C#CCN(C(=O)Cc2ncc(C(F)(F)F)cc2C(F)(F)F)c2ccc(F)cc2)nn1"
  Test system: "422866-222-R5-J1-PDC complex spheroid viability"
  Unit of measure: "%"
  viability, T/C: 69
- Compound: "O=C(c1cc(Cc2n[nH]c(=O)c3ccccc23)ccc1F)N1CCN(C(=O)C2CC2)CC1 + Nc1ccc(C#CCN(C(=O)Cc2ncc(C(F)(F)F)cc2C(F)(F)F)c2ccc(F)cc2)nn1"
  Test system: "422866-222-R5-J1-PDC complex spheroid viability"
  Unit of measure: "%"
  viability, T/C: 68.6
- Compound: "COc1cc2cc(C(=O)CCC(=O)O)sc2cc1OC + Nc1ccc(C#CCN(C(=O)Cc2ncc(C(F)(F)F)cc2C(F)(F)F)c2ccc(F)cc2)nn1"
  Test system: "422866-222-R5-J1-PDC complex spheroid viability"
  Unit of measure: "%"
  viability, T/C: 104
- Compound: "CCCS(=O)(=O)Nc1ccc(F)c(C(=O)c2c[nH]c3ncc(-c4ccc(Cl)cc4)cc23)c1F + Nc1ccc(C#CCN(C(=O)Cc2ncc(C(F)(F)F)cc2C(F)(F)F)c2ccc(F)cc2)nn1"
  Test system: "422866-222-R5-J1-PDC complex spheroid viability"
  Unit of measure: "%"
  viability, T/C: 96.7
- Compound: "O=C(Nc1ccc(O)c(NS(=O)(=O)c2ccc(F)cc2)c1)c1ccc(-c2ccccc2)cc1 + Cc1cccc(N(C)C(=O)C2C(O)CCN2c2nc(C)cc(C(F)(F)F)c2C#N)c1"
  Test system: "422866-222-R5-J1-PDC complex spheroid viability"
  Unit of measure: "%"
  viability, T/C: 103
